target: Fyn (UniProt P06241); test: phosphorylation enrichment, bacterial display (enrichment ratio); higher = better substrate or ligand; peptides without Tyr show the background;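 further: 11-residue human phosphosite peptides and single-mutation variants displayed on the E. coli surface, counted by deep sequencing, each peptide's frequency after selection divided by its frequency in the unselected input library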;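 further: frequency after pTyr selection over input frequency; kinase dosed for 20-30% of maximal phosphorylation in three min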
Sequence (P06241 whole entry, looked up): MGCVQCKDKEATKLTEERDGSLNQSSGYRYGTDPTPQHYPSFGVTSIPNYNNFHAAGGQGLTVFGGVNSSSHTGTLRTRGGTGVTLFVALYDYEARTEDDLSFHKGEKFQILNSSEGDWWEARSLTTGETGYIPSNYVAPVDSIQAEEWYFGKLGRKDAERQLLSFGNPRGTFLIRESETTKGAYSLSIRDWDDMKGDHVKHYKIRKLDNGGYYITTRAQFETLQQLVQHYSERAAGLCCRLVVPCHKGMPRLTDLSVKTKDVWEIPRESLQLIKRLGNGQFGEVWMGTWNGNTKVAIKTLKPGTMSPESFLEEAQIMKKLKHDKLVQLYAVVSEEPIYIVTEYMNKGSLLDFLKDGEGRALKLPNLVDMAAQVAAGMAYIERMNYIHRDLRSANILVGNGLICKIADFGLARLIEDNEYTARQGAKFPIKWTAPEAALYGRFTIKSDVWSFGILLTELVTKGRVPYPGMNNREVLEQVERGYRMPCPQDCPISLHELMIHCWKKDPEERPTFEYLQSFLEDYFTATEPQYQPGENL
Mark met for reported phosphorylation enrichment of 0.7 or greater; mark not met for anything smaller.

Consider the worked cases shown below.
RNGDRYFKGIV [DCX_Y64] ... not met
QPEDIYHQTWA [GBA_Y244_G241E] ... met
GVKLTYGDAQN [SLC28A1_Y404] ... not met
LNEVGYDDIGG [VCP_Y203] ... met
TTSQPYRCLCS [USH2A_Y534] ... not met
FTGNTYRVGDT [FN1_Y106_YF] ... not met
STKELYEKYMI ... not met
CSPLLYRVIMS [OR8D4_Y132] ... not met

State whether the measured phosphorylation enrichment reaches 0.7, counting equality as reaching it, for EQRRAYLEGTC [HLA-C_Y183_L180R]
not met

Does RNYDTYTAGLS [RHBDD1_Y264] have a reported phosphorylation enrichment of at least 0.7?
met

Is it the case that QQLQGYIPSNF [FRK_Y99_YF] has phosphorylation enrichment reaching or exceeding 0.7?
met

Source of measurements: the supplement of paper PMC10065799
